Tested on: ileum
assay-text: Smooth muscle effects: CaCl2 induced contractions of ileum
Set-up: species or system Guinea pigs
conditions-used: Cavia porcellus, 3 × 10^−6 M; guinea pig ileum; DMSO effect subtracted; read-out: Percentage Inhibition of CaCl2 Induced Contractions
metric-name: inhibition at 3 µM (%)
Write the value in % as a bare number.

Input: Please tell me: inhibition at 3 µM of C=CCN(C1CCc2ccccc21)C1CC(=O)c2ccccc21 (stereo not shown) , system ileum?
Output: 8.72

Input: Please tell me: inhibition at 3 µM of O=C1CC(NC2CCc3ccccc32)c2ccccc21 (stereo not shown) , system ileum?
Output: 15.1

Input: Please tell me: inhibition at 3 µM of CN(C1Cc2ccccc2C1)C1CC(=O)c2ccccc21 (stereo not shown) , system ileum?
Output: 12.6

Input: Please tell me: inhibition at 3 µM of CC(=O)N(C1CCc2ccccc21)C1CC(=O)c2ccccc21 (stereo not shown) [Compound 5C9, N-1-Indanyl-N-3-indan-1-onylethanamide] , system ileum?
Output: 9.06
